- Measurement Target: Calpain-2 catalytic subunit (Sus scrofa)
- Sequence (P43367 whole entry): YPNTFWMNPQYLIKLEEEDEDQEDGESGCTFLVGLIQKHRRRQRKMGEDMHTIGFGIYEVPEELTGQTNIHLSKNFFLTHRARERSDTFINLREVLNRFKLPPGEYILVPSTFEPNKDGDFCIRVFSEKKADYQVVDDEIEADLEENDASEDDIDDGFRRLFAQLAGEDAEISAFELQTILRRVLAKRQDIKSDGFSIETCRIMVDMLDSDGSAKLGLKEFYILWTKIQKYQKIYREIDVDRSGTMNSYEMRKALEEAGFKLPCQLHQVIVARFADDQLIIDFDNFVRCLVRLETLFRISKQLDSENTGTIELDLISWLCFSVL
- Assay Method Text: m-calpain protease blockers, concentration series – biochemical, fluorogenic peptide substrate, dose response (AID 1420)
- Assay type: functional
Readout Kind: IC50

>>> result("COc1ccc(C(=O)N/N=C(\\c2ccccc2)c2ccccn2)cc1")
"> 50 µM (not active)"
>>> result("COc1ccc(C(=O)NCC(C)(C)SCc2c(C)cc(C)cc2C)cc1")
"> 50 µM (not active)"
>>> result("COc1cccc(C(=O)Nc2cccc(-c3nnc(-c4ccco4)o3)c2)c1")
"> 50 µM (not active)"
>>> result("NC(=S)N/N=C/c1coc2c(ccc3ccccc32)c1=O")
"24.6 µM (not active)"
>>> result("CCSc1nnc(NC(=O)Cc2cccc(OC)c2)s1")
"2.28 µM (not active)"

Problem: Consider the compound `O=C(O)c1cc(NN=Nc2ccc(Br)cc2)cc([N+](=O)[O-])c1` . State its measured IC50.
Solution: 12.6 µM (not active)

====

- Measurement Target: Voltage-dependent T-type calcium channel subunit alpha-1H (Homo sapiens);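 further: channel activity triggered by adding a high calcium stimulation buffer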
- Sequence (O95180 whole entry): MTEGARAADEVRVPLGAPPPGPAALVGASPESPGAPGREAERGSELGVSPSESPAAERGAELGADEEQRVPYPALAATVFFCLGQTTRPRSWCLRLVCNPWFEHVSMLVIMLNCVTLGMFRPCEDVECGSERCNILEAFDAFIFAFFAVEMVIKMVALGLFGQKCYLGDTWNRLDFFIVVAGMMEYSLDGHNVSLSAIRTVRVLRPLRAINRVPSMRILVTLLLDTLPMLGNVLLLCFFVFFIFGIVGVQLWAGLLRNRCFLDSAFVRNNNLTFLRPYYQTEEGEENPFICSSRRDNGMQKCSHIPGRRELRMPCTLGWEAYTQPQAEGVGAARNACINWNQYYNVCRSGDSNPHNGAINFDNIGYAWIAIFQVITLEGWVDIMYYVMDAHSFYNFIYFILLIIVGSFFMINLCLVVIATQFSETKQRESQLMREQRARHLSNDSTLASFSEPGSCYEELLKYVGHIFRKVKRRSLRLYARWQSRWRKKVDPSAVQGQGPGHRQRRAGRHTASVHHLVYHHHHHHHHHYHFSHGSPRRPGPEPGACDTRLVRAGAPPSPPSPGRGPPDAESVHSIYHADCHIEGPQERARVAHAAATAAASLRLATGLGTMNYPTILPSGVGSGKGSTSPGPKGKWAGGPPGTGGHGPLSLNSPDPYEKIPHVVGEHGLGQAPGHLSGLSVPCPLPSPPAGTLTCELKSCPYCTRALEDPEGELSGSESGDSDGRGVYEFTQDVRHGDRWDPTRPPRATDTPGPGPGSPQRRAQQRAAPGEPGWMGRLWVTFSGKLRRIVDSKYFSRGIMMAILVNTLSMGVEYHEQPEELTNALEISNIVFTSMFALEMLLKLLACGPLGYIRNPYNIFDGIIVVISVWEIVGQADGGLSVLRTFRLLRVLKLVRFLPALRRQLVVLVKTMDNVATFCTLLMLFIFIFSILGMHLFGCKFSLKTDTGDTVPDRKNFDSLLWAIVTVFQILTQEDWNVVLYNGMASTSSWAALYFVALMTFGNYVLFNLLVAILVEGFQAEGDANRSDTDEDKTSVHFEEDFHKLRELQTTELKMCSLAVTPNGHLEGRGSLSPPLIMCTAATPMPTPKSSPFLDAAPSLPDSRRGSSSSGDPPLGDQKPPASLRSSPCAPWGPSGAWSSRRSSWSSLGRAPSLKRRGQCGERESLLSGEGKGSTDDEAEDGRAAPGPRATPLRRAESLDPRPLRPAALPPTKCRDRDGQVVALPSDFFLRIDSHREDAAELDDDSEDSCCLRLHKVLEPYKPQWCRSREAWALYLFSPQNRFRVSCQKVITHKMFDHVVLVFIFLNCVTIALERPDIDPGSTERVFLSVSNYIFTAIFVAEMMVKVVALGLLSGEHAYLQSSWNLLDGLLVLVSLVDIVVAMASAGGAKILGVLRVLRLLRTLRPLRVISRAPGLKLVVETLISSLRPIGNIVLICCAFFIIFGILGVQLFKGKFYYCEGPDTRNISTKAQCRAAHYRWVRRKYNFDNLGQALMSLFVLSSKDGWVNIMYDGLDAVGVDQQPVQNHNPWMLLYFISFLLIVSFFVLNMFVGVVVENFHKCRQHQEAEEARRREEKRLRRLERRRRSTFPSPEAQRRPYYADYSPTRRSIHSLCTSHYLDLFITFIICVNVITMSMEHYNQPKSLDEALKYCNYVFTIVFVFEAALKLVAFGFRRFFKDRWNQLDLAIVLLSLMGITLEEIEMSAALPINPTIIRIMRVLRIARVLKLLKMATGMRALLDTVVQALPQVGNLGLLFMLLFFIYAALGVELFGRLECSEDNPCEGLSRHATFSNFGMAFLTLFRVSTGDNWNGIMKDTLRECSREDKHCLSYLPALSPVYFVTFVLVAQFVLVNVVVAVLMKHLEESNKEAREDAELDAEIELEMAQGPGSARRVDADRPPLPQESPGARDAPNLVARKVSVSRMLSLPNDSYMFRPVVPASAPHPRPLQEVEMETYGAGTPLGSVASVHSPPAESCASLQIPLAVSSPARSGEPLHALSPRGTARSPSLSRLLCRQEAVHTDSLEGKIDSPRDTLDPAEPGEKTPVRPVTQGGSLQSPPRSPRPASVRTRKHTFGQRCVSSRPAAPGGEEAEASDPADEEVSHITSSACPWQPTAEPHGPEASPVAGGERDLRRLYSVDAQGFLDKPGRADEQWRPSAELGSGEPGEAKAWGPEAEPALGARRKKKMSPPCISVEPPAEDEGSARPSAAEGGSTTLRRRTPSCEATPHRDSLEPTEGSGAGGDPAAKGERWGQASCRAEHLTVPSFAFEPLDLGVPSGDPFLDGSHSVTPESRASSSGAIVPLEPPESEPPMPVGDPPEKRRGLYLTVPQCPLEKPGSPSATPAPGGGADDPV
- Assay type: functional
The source made the active and inactive calls.
Readout Kind: EC50

Solved entries (count: 3):
>>> result("CCCCN(CCCC)S(=O)(=O)c1ccc(C(=O)Nc2nnc(CSC)o2)cc1")
"2.82 µM (active)"
>>> result("Cc1nn(Cc2ccc(Cl)c(Cl)c2)c(C)c1NC(=O)c1cc(CC(C)C)on1")
"1.28 µM (active)"
>>> result("CCC(=O)N1CCN(c2ccc(Cl)cc2NC(=O)Cc2ccccc2)CC1")
"10.1 µM (active)"

Problem: Give EC50 for `Cc1cc2ncn(CCCCOc3ccccc3)c2cc1C` tested on Voltage-dependent T-type calcium channel subunit alpha-1H (Homo sapiens).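 Further: channel activity triggered by adding a high calcium stimulation buffer.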
Solution: 7.27 µM (active)

Problem: Report measured EC50 on Voltage-dependent T-type calcium channel subunit alpha-1H (Homo sapiens); entry: COc1ccc(C(c2nnnn2C2CCCC2)N2CCc3ccccc3C2)cc1OC (stereo not given)
Solution: 5.07 µM (active)

====

- Assay Method Text: Luminescence Cell-Based Dose Confirmation HTS to Identify Activators of 5'UTR Stem-Loop Driven Alpha-Synuclein mRNA Translation in H4 Neuroglioblastoma Cells. [Related pubchem assays: 1829 (Project Summary), 1814 (Primary HTS)]
- Assay type: functional
Activity calls are given as the source filed them.
Readout Kind: EC50

Recorded results for 5 compounds are shown here.
>>> result("c1ccc2c(c1)Nc1cc3ccccc3cc1S2")
"98.5 µM (active)"
>>> result("Oc1ccc(N=Nc2n[nH]c(-c3ccc(Cl)cc3)n2)cc1")
"> 120 µM (not active)"
>>> result("COc1ccc(OC)c2c1C(=O)C(Cl)=C(Cl)C2=O")
"> 120 µM (not active)"
>>> result("COc1cccc(NC(=O)C(=O)N2CCOCC2)c1")
"4.35 µM (active)"
>>> result("CCOC(=O)C1(Cc2cccc(OC)c2)CCCN(C(=O)CCN2CCCO2)C1 (configuration not stated)")
"11.1 µM (active)"

Problem: Retrieve EC50 measured for `O=C(c1ccccc1)N1CCN(c2ncnc3c(-c4ccccc4)nsc23)CC1` and print it.
Solution: 33.1 µM (active)

Problem: Input `O=C(CCCc1c[nH]c2ccccc12)N1CCCCCC1` , output reported EC50.
Solution: 8.16 µM (active)

====

- Measurement Target: Kappa-type opioid receptor (Homo sapiens, UniProt P41145)
- Sequence (P41145 whole entry): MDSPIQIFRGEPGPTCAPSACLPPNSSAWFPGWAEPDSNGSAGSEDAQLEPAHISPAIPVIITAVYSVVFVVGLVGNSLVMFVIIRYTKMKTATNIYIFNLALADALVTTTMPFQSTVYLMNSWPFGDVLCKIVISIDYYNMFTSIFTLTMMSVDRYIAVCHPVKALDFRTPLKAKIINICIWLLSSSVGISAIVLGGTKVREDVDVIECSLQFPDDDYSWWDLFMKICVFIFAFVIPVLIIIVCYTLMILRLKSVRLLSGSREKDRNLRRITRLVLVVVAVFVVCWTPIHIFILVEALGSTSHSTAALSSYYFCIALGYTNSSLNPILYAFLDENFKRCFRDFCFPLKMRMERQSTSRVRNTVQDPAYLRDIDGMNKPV
- Type: functional
Readout Kind: EC50 (µM)
The reply should contain only the number, in µM.

Problem: Give me measured EC50, please, for this molecule: `Cc1ccc(Cl)cc1NC(=S)N(Cc1cccs1)C1CCCC1`
Solution: 13.1

====

Property: IC50; scope: individual molecules
- Measurement Target: Phospholipase A2 (Homo sapiens);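 further: confirmatory dose-response counterscreen on phospholipase A2, testing hits that came from an ultra-high-throughput screen for ATG4B inhibitors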
- Sequence (P04054 whole entry): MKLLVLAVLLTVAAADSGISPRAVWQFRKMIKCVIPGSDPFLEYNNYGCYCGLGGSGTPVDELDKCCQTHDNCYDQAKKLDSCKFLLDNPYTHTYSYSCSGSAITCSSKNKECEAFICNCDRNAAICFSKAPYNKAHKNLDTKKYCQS
- Assay type: functional
Calls of active or inactive are those of the source.

>>> result("COc1cccc(NS(=O)(=O)c2ccc3c(c2)C2C=CCC2C(c2ccc(C(=O)O)cc2)N3)c1 (stereo not given)")
"10.6 µM (active)"
>>> result("Cc1cc(C(=O)N2CCCC(C(=O)c3ccc(Oc4ccccc4)cc3)C2)[nH]n1 (stereo not given)")
"11.9 µM (active)"
>>> result("O=C(O)/C=C/c1ccccc1Oc1ccc(Cl)cc1Cl")
"62.7 µM (inactive)"
>>> result("O=C(NN1C(=O)/C(=C/C=C/c2ccco2)SC1=S)c1ccncc1")
"> 80 µM (inactive)"

Problem: Report its IC50 with Phospholipase A2 (Homo sapiens) as the test system: `COc1ccc2c(c1)C(c1ccc(C)o1)=NNC(c1ccccc1)=N2`
Solution: 8.91 µM (active)

====

- Assay Method Text: non-specific 3'UTR reporter inhibition in Clone20-Shn3RL – cell-based, Renilla luciferase, cherry-picked, counter-screen for Shn3 inhibitor project, dose response (AID 624133)
- Format: functional
Activity calls are given as the source filed them.
Readout Kind: AC50

Problem: Give AC50 for the following molecule: Oc1nc2ccccc2n1C1CCN(C(CCc2ccccc2)c2nnnn2Cc2ccccc2)CC1 (stereo not given)
Solution: 60.9 µM (active)

Problem: Let me know recorded AC50 for `S=C(Nc1ccccc1)Nc1ccc(OCc2ccc(Cl)cc2Cl)cc1` , thanks.
Solution: 0.406 µM (active)

Problem: For the molecule `Cc1sc2ncnc(NC3CCN(Cc4ccccc4)CC3)c2c1C` , give its reported AC50.
Solution: 2.61 µM (active)

Problem: Return the recorded AC50 value; entry: `CN1CCN(S(=O)(=O)c2ccc(Sc3nnnn3-c3ccccc3)c([N+](=O)[O-])c2)CC1`
Solution: 7.28 µM (active)

Problem: Return value of AC50 for input `Oc1ccc(-c2nc(-c3ccc(O)c(O)c3)cs2)cc1` , no commentary.
Solution: 5.09 µM (active)

====

- Measurement Target: Nuclear receptor subfamily 0 group B member 1 (Homo sapiens);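 further: HEK293T cells transfected with SF-1 and DAX-1 plus StAR promoter luciferase reporter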
- Sequence (P51843 whole entry): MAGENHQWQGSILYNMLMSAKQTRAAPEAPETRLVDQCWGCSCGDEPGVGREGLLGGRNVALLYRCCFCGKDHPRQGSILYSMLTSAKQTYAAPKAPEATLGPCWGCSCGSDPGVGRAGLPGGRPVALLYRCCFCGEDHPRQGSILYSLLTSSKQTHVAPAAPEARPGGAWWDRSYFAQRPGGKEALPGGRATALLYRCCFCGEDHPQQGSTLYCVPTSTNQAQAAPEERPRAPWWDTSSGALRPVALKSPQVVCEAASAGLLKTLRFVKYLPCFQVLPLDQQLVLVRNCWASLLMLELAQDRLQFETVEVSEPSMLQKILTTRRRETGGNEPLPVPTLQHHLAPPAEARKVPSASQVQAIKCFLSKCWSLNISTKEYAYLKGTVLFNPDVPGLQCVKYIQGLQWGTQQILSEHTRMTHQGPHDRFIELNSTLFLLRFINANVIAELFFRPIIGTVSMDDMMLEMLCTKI
- Format: functional, cell-based
Activity calls are given as the source filed them.
Listing: IC50 of selected compounds

A selection of reference data follows.
>>> result("C=C1[C@@H](C)C2[C@H](Cc3ccccc3)NC(=O)[C@]23[C@H](OC(C)=O)/C=C/[C@@](C)(O)C(=O)[C@@H](C)C/C=C/[C@H]3[C@@H]1O (stereo not given in full)")
"14 µM (inactive)"
>>> result("CN(C)c1cccc(C(=O)N/N=C/c2ccccc2F)c1")
"> 67.6 µM (inactive)"
>>> result("C/C(=N/NC(=O)c1ccc2c(c1)OCO2)c1ccc(NC(=O)c2ccc(F)cc2)cc1")
"> 67.5 µM (inactive)"
>>> result("Cc1ccc(Cc2c(-c3ccc(Br)cc3)nc3cc(C)ccn23)cc1")
"> 67.5 µM (inactive)"

Next up:
Problem: Please give measured IC50 of the following entry: `O=C1C(=Cc2ccccc2Cl)CCc2ccccc21`
Solution: > 67.5 µM (inactive)

====

- Assay Method Text: DRD fibroblast viability loss – cell-based, non-viral oncogenic, luminescence, dose response (AID 1934)
- Type: functional
- Settings: Homo sapiens
Active and inactive are the calls of the source.
Readout Kind: EC50

Examples from the recorded data:
>>> result("O=[N+]([O-])c1ccc(N=Nc2c(Cl)cc(O)cc2Cl)cc1")
"4.74 µM (active)"
>>> result("COc1cccc(N=Nc2ccc(O)c3ncccc23)c1")
"12.7 µM (inconclusive)"
>>> result("COc1ccccc1/C=C1\\SC(=O)N(CCC(=O)NCCCn2ccnc2)C1=O")
"> 150 µM (not active)"
>>> result("C/C(=N\\NC(=O)CC1N=C(Cc2ccccc2)NNC1=O)c1ccc(C)cc1 (stereo not given)")
"44.3 µM (active)"

Proceeding to the next compound to report its EC50.
Problem: Assign EC50 to the following record: `CCC1=Nc2cc(C(=O)NCCN3CCOCC3)ccc2Sc2ccccc21`
Solution: > 150 µM (not active)

====

- Measurement Target: Luciferin 4-monooxygenase (Photinus pyralis, UniProt P08659)
- Sequence (P08659 whole entry): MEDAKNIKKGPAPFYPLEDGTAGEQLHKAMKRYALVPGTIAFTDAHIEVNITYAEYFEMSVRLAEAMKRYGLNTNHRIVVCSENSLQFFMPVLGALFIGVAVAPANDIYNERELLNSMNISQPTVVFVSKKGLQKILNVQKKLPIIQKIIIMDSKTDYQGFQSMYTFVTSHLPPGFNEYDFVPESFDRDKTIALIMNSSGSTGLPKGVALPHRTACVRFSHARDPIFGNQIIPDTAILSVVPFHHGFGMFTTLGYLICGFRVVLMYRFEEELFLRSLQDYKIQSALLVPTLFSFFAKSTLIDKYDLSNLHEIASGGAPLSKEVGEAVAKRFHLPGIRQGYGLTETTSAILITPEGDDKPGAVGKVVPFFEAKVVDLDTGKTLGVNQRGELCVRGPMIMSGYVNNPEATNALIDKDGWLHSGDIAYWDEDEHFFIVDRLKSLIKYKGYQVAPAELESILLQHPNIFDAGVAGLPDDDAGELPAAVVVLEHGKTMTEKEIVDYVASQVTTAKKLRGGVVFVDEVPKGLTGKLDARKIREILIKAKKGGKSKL
- Assay Method Text: inhibition of purified Photinus pyralis luciferase – biochemical, luminescence, dose response (AID 1891)
Activity calls are given as the source filed them.
Readout Kind: EC50

Take a look at these entries with their results.
>>> result("C(=N\\c1nc2ccccc2[nH]1)/c1cccs1")
"16.2 µM (active)"
>>> result("COc1ccc(OC)c2c1C(=O)C(Cl)=C(Cl)C2=O")
"> 112 µM (not active)"
>>> result("COc1ccc(C2=NN(C(=O)CSC3=NN4CCCC(=O)N=C4S3)C(c3cccc(OC)c3OC)C2)cc1 (stereo not given)")
"> 112 µM (not active)"
>>> result("COc1ccc(Cc2nnc(NC(=O)c3c(-c4ccccc4)noc3C)s2)cc1")
"> 112 µM (not active)"

Proceeding to the next compound to report its EC50.
Problem: Please report the measured EC50 for `O=C(Nc1nccs1)C1CCN(S(=O)(=O)c2ccc(Cl)c(C(F)(F)F)c2)CC1`
Solution: > 112 µM (not active)

====

- Measurement Target: Corticotropin-releasing factor receptor 2/Corticotropin-releasing factor-binding protein (Homo sapiens, UniProt P24387+Q13324)
- Sequence (Q13324 whole entry): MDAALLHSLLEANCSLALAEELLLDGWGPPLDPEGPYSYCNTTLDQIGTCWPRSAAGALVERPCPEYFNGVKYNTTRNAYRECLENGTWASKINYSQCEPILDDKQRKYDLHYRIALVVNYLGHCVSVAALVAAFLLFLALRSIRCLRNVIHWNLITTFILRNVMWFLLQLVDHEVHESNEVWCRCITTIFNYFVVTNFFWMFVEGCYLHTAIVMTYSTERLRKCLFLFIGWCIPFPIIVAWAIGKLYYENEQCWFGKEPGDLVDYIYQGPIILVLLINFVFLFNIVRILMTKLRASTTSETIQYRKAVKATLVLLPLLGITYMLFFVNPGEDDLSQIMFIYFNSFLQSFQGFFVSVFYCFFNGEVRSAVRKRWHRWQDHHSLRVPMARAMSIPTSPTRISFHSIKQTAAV
- Sequence (P24387 whole entry): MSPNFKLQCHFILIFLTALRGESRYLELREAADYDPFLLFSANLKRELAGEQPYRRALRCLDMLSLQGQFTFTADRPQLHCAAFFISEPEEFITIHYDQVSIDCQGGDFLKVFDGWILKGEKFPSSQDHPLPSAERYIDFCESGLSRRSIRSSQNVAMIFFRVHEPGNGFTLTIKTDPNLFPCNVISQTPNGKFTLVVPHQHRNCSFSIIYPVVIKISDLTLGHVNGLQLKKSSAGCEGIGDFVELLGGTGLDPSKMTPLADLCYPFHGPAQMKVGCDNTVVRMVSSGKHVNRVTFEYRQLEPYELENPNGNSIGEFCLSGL
- Assay Method Text: Dose Response confirmation of uHTS hits for small molecule antagonists of the CRF-binding protein and CRF-R2 receptor complex.
- Type: functional
- Settings: read-out: IC50_Mean
Activity calls are given as the source filed them.
Permitted responses: TRUE for active, FALSE for inactive

Examples with answers:
>>> assigned_label("COC(=O)/C=c1/s/c(=C(\\C#N)C(=O)NCc2ccco2)n(-c2ccccc2)c1=O")
"FALSE"
>>> assigned_label("CS(=O)(=O)Nc1ccccc1C(=O)NCc1ccccc1Cl")
"FALSE"

From here, focus on the item given below.
Problem: Would you mind telling me which call this test gave `Cc1cc(C)c(C)c(S(=O)(=O)Nc2ccccc2C(=O)O)c1C` ?
Solution: TRUE
